Attribute: relative viability
# System: HCC-827
# Test Name: relative viability (nuclei count vs DMSO), 5 days (fraction); higher = more cells survive
# Test Parameters: first compound 4 µM

Compound	Test Target	relative viability
COc1cc(N2CCC(C(N)=O)CC2)ccc1Nc1nc(N)c(Cl)c(Nc2ccccc2S(=O)(=O)C(C)C)n1 [HG-5-88-01] + O=C(c1cc(Cc2n[nH]c(=O)c3ccccc23)ccc1F)N1CCN(C(=O)C2CC2)CC1 [Olaparib] (partner 8 µM)	HCC-827	0.24
COc1cc(N2CCC(C(N)=O)CC2)ccc1Nc1nc(N)c(Cl)c(Nc2ccccc2S(=O)(=O)C(C)C)n1 [HG-5-88-01] + C[C@]1(O)C[C@@H](c2nc(-c3ccc4ccc(-c5ccccc5)nc4c3)c3c(N)nccn32)C1 [Linsitinib] (partner 1 µM)	HCC-827	0.69
COc1cc(N2CCC(C(N)=O)CC2)ccc1Nc1nc(N)c(Cl)c(Nc2ccccc2S(=O)(=O)C(C)C)n1 [HG-5-88-01] + C[C@@H](Oc1cc(-c2cnn(C3CCNCC3)c2)cnc1N)c1c(Cl)ccc(F)c1Cl [Crizotinib] (partner 1 µM)	HCC-827	0.392
Clc1ccc(Nc2nnc(Cc3ccncc3)c3ccccc23)cc1 [Vatalanib] + CS(=O)(=O)CCNCc1ccc(-c2ccc3ncnc(Nc4ccc(OCc5cccc(F)c5)c(Cl)c4)c3c2)o1 [Lapatinib] (partner 2 µM)	HCC-827	0.188

----------
# System: NCI-H520
# Test Name: relative viability (nuclei count vs DMSO), 5 days (fraction); higher = more cells survive
# Test Parameters: first compound 0.01 µM

Compound	relative viability
CC(C)Oc1cc(Nc2nc(N[C@@H](C)c3ccc(F)cn3)ncc2Cl)n[nH]1 [AZ23] + CC(=O)c1c(C)c2cnc(Nc3ccc(N4CCNCC4)cn3)nc2n(C2CCCC2)c1=O [Palbociclib] (partner 0.5 µM)	0.236
CC(C)Oc1cc(Nc2nc(N[C@@H](C)c3ccc(F)cn3)ncc2Cl)n[nH]1 [AZ23] + C[C@]1(O)C[C@@H](c2nc(-c3ccc4ccc(-c5ccccc5)nc4c3)c3c(N)nccn32)C1 [Linsitinib] (partner 1 µM)	1.18

----------
Attribute: relative viability
# System: PC-14
# Test Name: relative viability (nuclei count vs DMSO), 5 days (fraction); higher = more cells survive
# Test Parameters: first compound 4 µM

Compound	relative viability
COc1cc(N2CCC(C(N)=O)CC2)ccc1Nc1nc(N)c(Cl)c(Nc2ccccc2S(=O)(=O)C(C)C)n1 [HG-5-88-01] + CC(=O)c1c(C)c2cnc(Nc3ccc(N4CCNCC4)cn3)nc2n(C2CCCC2)c1=O [Palbociclib] (partner 0.5 µM)	0.0845
C[C@@H]1CN(CC(=O)Nc2ccc3c(c2)Cc2cccc(-c4cc(=O)cc(N5CCOCC5)o4)c2S3)C[C@H](C)O1 + O=C(CCCCCCC(=O)Nc1ccccc1)NO [Vorinostat] (partner 1 µM)	0.61

----------
# Test system: NCI-H441
# Test Name: relative viability (nuclei count vs DMSO), 5 days (fraction); higher = more cells survive
# Test Parameters: first compound 0.1265 µM
Attribute: relative viability

Compound	relative viability
C[C@@H]1CN(CC(=O)Nc2ccc3c(c2)Cc2cccc(-c4cc(=O)cc(N5CCOCC5)o4)c2S3)C[C@H](C)O1 + COc1cccc2cc(-c3nc([C@H]4CC[C@H](C(=O)O)CC4)n4ncnc(N)c34)[nH]c12 [OSI-027] (partner 0.5 µM)	0.791
COc1cc(N2CCC(C(N)=O)CC2)ccc1Nc1nc(N)c(Cl)c(Nc2ccccc2S(=O)(=O)C(C)C)n1 [HG-5-88-01] + O=C(CCCCCCC(=O)Nc1ccccc1)NO [Vorinostat] (partner 1 µM)	0.736
COc1cc(N2CCC(C(N)=O)CC2)ccc1Nc1nc(N)c(Cl)c(Nc2ccccc2S(=O)(=O)C(C)C)n1 [HG-5-88-01] + CC(=O)Nc1cccc(-n2c(=O)n(C3CC3)c(=O)c3c(Nc4ccc(I)cc4F)n(C)c(=O)c(C)c32)c1 [Trametinib] (partner 0.02 µM)	0.428
C[C@@H]1CN(CC(=O)Nc2ccc3c(c2)Cc2cccc(-c4cc(=O)cc(N5CCOCC5)o4)c2S3)C[C@H](C)O1 + Cc1nc(Nc2ncc(C(=O)Nc3c(C)cccc3Cl)s2)cc(N2CCN(CCO)CC2)n1 [Dasatinib] (partner 0.075 µM)	0.46
Clc1ccc(Nc2nnc(Cc3ccncc3)c3ccccc23)cc1 [Vatalanib] + COc1cc2c(Oc3ccc(NC(=O)C4(C(=O)Nc5ccc(F)cc5)CC4)cc3F)ccnc2cc1OCCCN1CCOCC1 [Foretinib] (partner 0.25 µM)	0.977
COc1cc(N2CCC(C(N)=O)CC2)ccc1Nc1nc(N)c(Cl)c(Nc2ccccc2S(=O)(=O)C(C)C)n1 [HG-5-88-01] + COc1cccc2cc(-c3nc([C@H]4CC[C@H](C(=O)O)CC4)n4ncnc(N)c34)[nH]c12 [OSI-027] (partner 0.5 µM)	0.77
C[C@@H]1CN(CC(=O)Nc2ccc3c(c2)Cc2cccc(-c4cc(=O)cc(N5CCOCC5)o4)c2S3)C[C@H](C)O1 + CC(=O)Nc1cccc(-n2c(=O)n(C3CC3)c(=O)c3c(Nc4ccc(I)cc4F)n(C)c(=O)c(C)c32)c1 [Trametinib] (partner 0.02 µM)	0.481
Clc1ccc(Nc2nnc(Cc3ccncc3)c3ccccc23)cc1 [Vatalanib] + COc1cccc2cc(-c3nc([C@H]4CC[C@H](C(=O)O)CC4)n4ncnc(N)c34)[nH]c12 [OSI-027] (partner 0.5 µM)	0.504

Each recorded value in this set is attributed to the supplement of paper PMC10307832.
